Below are Tm values measured for Mitogen-activated protein kinase 14 (Homo sapiens, UniProt Q16539).

>  <structure smiles>
CCC(=O)Nc1cc(C(C)(C)C)cc(NC(=O)Nc2ccc(-c3ccc(CN4CCOCC4)nc3)c3ccccc23)c1OC

>  <Tm, °C>
58.7

$$$$
>  <structure smiles>
COc1ccc(C(C)(C)C)cc1NC(=O)Nc1cccc2ccccc12

>  <Tm, °C>
50.3

$$$$
>  <structure smiles>
COc1c(NC(=O)Nc2ccc(-c3ccc(CN4CCOCC4)nc3)c3ccccc23)cc(C(C)(C)C)cc1C(=O)N(C)C

>  <Tm, °C>
56.2

$$$$
>  <structure smiles>
COc1c(NC(=O)Nc2ccc(-c3ccc(CN4CCOCC4)nc3)c3ccccc23)cc(C(C)(C)C)cc1NS(C)(=O)=O

>  <Tm, °C>
63.3

$$$$
>  <structure smiles>
Cn1nc(C(C)(C)C)cc1NC(=O)Nc1ccc(-c2ccc(CN3CCOCC3)nc2)c2ccccc12

>  <Tm, °C>
57.9

$$$$
>  <structure smiles>
COc1c(NC(=O)c2cc3ccccc3o2)cc(C(C)(C)C)cc1NS(C)(=O)=O

>  <Tm, °C>
48.8

$$$$
>  <structure smiles>
COc1c(NC(=O)c2cc3ccccc3s2)cc(C(C)(C)C)cc1NS(C)(=O)=O

>  <Tm, °C>
51.4

$$$$
>  <structure smiles>
COc1ccc(C(C)(C)C)cc1NC(=O)Nc1ccc(-c2ccc(CN3CCOCC3)nc2)c2ccccc12

>  <Tm, °C>
57.9

$$$$
>  <structure smiles>
Cc1ccc(C(C)(C)C)cc1NC(=O)Nc1ccc(-c2ccc(CN3CCOCC3)nc2)c2ccccc12

>  <Tm, °C>
54.6

$$$$
>  <structure smiles>
Cc1ccc(-n2nc(C(C)(C)C)cc2NC(=O)Nc2ccc(-c3ccc(CN4CCOCC4)nc3)c3ccccc23)cc1

>  <Tm, °C>
63.6

$$$$
>  <structure smiles>
COc1c(NC(N)=O)cc(C(C)(C)C)cc1NC(=O)Nc1ccc(-c2ccc(CN3CCOCC3)nc2)c2ccccc12

>  <Tm, °C>
56.7

$$$$
>  <structure smiles>
COC(=O)Nc1cc(C(C)(C)C)cc(NC(=O)Nc2ccc(-c3ccc(CN4CCOCC4)nc3)c3ccccc23)c1OC

>  <Tm, °C>
58.1

$$$$
>  <structure smiles>
CNC(=O)c1cc(C(C)(C)C)cc(NC(=O)Nc2ccc(-c3ccc(CN4CCOCC4)nc3)c3ccccc23)c1OC

>  <Tm, °C>
65.6

$$$$
>  <structure smiles>
COc1c(NC(=O)Nc2ccc(-c3ccc(CN4CCOCC4)nc3)c3ccccc23)cc(C(C)(C)C)cc1C(N)=O

>  <Tm, °C>
65.5

$$$$
>  <structure smiles>
Cc1ccc(C(C)C)cc1NC(=O)Nc1ccc(-c2ccc(CN3CCOCC3)nc2)c2ccccc12

>  <Tm, °C>
52.3

$$$$
>  <structure smiles>
COc1c(NC(=O)Nc2ccc(-c3ccc(CN4CCOCC4)nc3)c3ccccc23)cc(C(C)(C)C)cc1N(C)C(C)=O

>  <Tm, °C>
64.9

$$$$
>  <structure smiles>
Cc1ncc(-c2ccc(C(C)(C)C)cc2NC(=O)Nc2ccc(-c3ccc(CN4CCOCC4)nc3)c3ccccc23)cn1

>  <Tm, °C>
56.6

$$$$
